Each recorded value in this set is attributed to patent US5100873A.

Minimal active dose, p115 phosphorylation values by entry
Test system: p115 protein associated with the bombesin receptor complex
Experiment: Phosphorylation of the p115 protein associated with the bombesin receptor
Assay type: cell-based
Answer in nM, number only, no unit symbol.

Here's what some known entries look like.
substance	unit label	recorded number
Boc-mMel-Gln-Trp-Ala-Val-Gly-His(Dnp)-Leu-Met-NH2 [XVI]	nM	40
H-mMel-Gln-Trp-Ala-Val-Gly-His-(Dnp)-Leu-Met-NH2.HCl [XVII]	nM	4
Boc-pMel-Gln-Trp-Ala-Val-Gly-His(Dnp)-Leu-Met-NH2 [IV]	nM	50

# ---- query substance ----
In: State, in one line, measured Minimal active dose, p115 phosphorylation of H-pMel-Gln-Trp-Ala-Val-Gly-His(Dnp)-Leu-Met-NH2.HCl
Out: 100

---

% inhibition in the presence of 25 nM BBS (B) values by entry
Tested on: Swiss 3T3 fibroblasts
Test: Inhibition of BBS-induced [H3]thymidine incorporation (given with BBS or as pre-treatment)
Format: cell-based, mouse
Conditions: 500 nM; B = cells pretreated with analogues, washed, left at 37° C. for 24 h, then challenged with BBS
Answer in %, number only, no unit symbol.

Here's what some known entries look like.
substance	recorded number
Boc-pMel-Gln-Trp-Ala-Val-Gly-His(Dnp)-Leu-Met-NH2 [IV]	81
Boc-mMel-Gln-Trp-Ala-Val-Gly-His(Dnp)-Leu-Met-NH2 [XVI]	47
H-pMel-Gln-Trp-Ala-Val-Gly-His(Dnp)-Leu-Met-NH2.HCl	87

In: # return % inhibition in the presence of 25 nM BBS (B) for H-mMel-Gln-Trp-Ala-Val-Gly-His-(Dnp)-Leu-Met-NH2.HCl [XVII] , test system: Swiss 3T3 fibroblasts
Out: 58

---

[H3]thymidine incorporation, fold increase over basal value values by entry
Tested on: Swiss 3T3 fibroblasts
Assay: [H3]thymidine incorporation (mitogenesis), analogues given alone
Type: cell-based, mouse
Settings: 5 nM, analogue alone
Procedure: The effect on mitogenesis was determined in quiescent and confluent Swiss 3T3 cells maintained in serum free medium (A. N. Corps et al (1985) Biochem J. 231, 781-785). In a first set of experiments, analogues were given alone or in combination with bombesin. In a second set of experiments, cells were pre-treated with the alkylating peptides, washed, left at 37° C. for 24 hours and then challenged with bombesin. In both cases, DNA synthesis was evaluated as [H^3 ]thymidine incorporation (Table 2).
In your answer, state the number alone without any accompanying words.

Here's what some known entries look like.
substance	recorded number
H-mMel-Gln-Trp-Ala-Val-Gly-His-(Dnp)-Leu-Met-NH2.HCl [XVII]	1
Boc-pMel-Gln-Trp-Ala-Val-Gly-His(Dnp)-Leu-Met-NH2 [IV]	1
Boc-mMel-Gln-Trp-Ala-Val-Gly-His(Dnp)-Leu-Met-NH2 [XVI]	1.2

In: State, in one line, measured [H3]thymidine incorporation, fold increase over basal value of H-pMel-Gln-Trp-Ala-Val-Gly-His(Dnp)-Leu-Met-NH2.HCl
Out: 1

---

ID50 values by entry
Biological target: bombesin receptors (Mus musculus)
Construct: bombesin receptors was determined on mouse Swiss 3T3 fibroblasts; endogenous in cells; host or cells: mouse Swiss 3T3 fibroblasts
Sequence (P21729 whole entry): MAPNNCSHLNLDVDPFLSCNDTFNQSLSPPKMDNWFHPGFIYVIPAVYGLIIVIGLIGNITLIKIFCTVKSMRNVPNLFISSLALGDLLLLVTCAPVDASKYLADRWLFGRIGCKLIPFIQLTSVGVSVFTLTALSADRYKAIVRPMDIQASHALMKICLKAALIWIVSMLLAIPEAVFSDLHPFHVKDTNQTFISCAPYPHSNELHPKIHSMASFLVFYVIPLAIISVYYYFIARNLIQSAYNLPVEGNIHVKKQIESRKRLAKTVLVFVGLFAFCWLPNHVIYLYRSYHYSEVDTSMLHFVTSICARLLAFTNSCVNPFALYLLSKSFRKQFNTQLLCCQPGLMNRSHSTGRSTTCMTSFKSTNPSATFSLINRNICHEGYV
Experiment: Binding affinity for bombesin receptors on mouse Swiss 3T3 fibroblasts
Conditions: mouse Swiss 3T3 fibroblasts
Answer in nM, number only, no unit symbol.

substance	ID50, nM
Boc-mMel-Gln-Trp-Ala-Val-Gly-His(Dnp)-Leu-Met-NH2 [XVI]	390
H-mMel-Gln-Trp-Ala-Val-Gly-His-(Dnp)-Leu-Met-NH2.HCl [XVII]	148

In: State, in one line, measured ID50 of H-pMel-Gln-Trp-Ala-Val-Gly-His(Dnp)-Leu-Met-NH2.HCl
Out: 680

---

Biological target: bombesin receptors (Mus musculus)
Construct: bombesin receptors was determined on mouse Swiss 3T3 fibroblasts; endogenous in cells
Assay: Binding affinity for bombesin receptors on mouse Swiss 3T3 fibroblasts
Description: The binding affinity of the compounds of the present invention for bombesin receptors was determined on mouse Swiss 3T3 fibroblasts (I. Zachary and E. Rozengurt (1985) Proc. Natl. Acad. Sci. USA, 82, 7616-7620) (Table 1).
pIC50: −log10 of the molar value. Counter-ions that a name gives are not always drawn. *1 amine or outer side, *2 acyl side, *3 side chain or, on linkers, in order; H or OH if unused. Where a SMILES comes first, the peptide text is derived from it. [ ]: non-standard residue; d: D form. The star is where a group is joined. Phe(4-N(CH2CH2Cl)2) = N[C@@H](Cc1ccc(N(CCCl)CCCl)cc1)C(=O)O; X1 = O=C([C@H](Cc1cccc(N(CCCl)CCCl)c1)N[*:1])[*:2]; Boc = CC(C)(C)OC(=O)*
Class label 1: pIC50 at least 7. Class label 0: pIC50 below 7.

Look over these answered cases.
compound	label class
CC(C)[C@H](NC(=O)[C@H](C)NC(=O)[C@H](Cc1c[nH]c2ccccc12)NC(=O)[C@H](CCC(N)=O)NC(=O)[C@H](Cc1ccc(N(CCCl)CCCl)cc1)NC(=O)OC(C)(C)C)C(=O)NCC(=O)O [III, Boc-pMel-Gln-Trp-Ala-Val-Gly-OH] (Boc-[Phe(4-N(CH2CH2Cl)2)]QWAVG-OH)	label 0
CC(C)[C@H](NC(=O)[C@H](C)NC(=O)[C@H](Cc1c[nH]c2ccccc12)NC(=O)[C@H](CCC(N)=O)NC(=O)[C@H](Cc1cccc(N(CCCl)CCCl)c1)NC(=O)OC(C)(C)C)C(=O)NCC(=O)O [IX, Boc-mMel-Gln-Trp-Ala-Val-Gly-OH] (Boc-[X1]QWAVG-OH)	label 0
CSCC[C@H](NC(=O)[C@H](CC(C)C)NC(=O)CNC(=O)[C@@H](NC(=O)[C@H](C)NC(=O)[C@H](Cc1c[nH]c2ccccc12)NC(=O)[C@H](CCC(N)=O)NC(=O)[C@H](Cc1cccc(N(CCCl)CCCl)c1)NC(=O)OC(C)(C)C)C(C)C)C(N)=O [XX, Boc-mMel-Gln-Trp-Ala-Val-Gly-Leu-Met-NH2] (Boc-[X1]QWAVGLM-NH2)	label 1
CSCC[C@H](NC(=O)[C@H](CC(C)C)NC(=O)CNC(=O)[C@@H](NC(=O)[C@H](C)NC(=O)[C@H](Cc1c[nH]c2ccccc12)NC(=O)[C@H](CCC(N)=O)NC(=O)[C@@H](NC(=O)CNC(=O)[C@H](CC(C)C)NC(=O)[C@H](Cc1cccc(N(CCCl)CCCl)c1)NC(=O)OC(C)(C)C)[C@@H](C)O)C(C)C)C(N)=O [XIV] (Boc-[X1]LGTQWAVGLM-NH2)	label 0
CSCC[C@H](NC(=O)[C@H](CC(C)C)NC(=O)[C@H](Cc1c[nH]cn1)NC(=O)CNC(=O)[C@@H](NC(=O)[C@H](C)NC(=O)[C@H](Cc1c[nH]c2ccccc12)NC(=O)[C@H](CCC(N)=O)NC(=O)[C@@H](N)Cc1ccc(N(CCCl)CCCl)cc1)C(C)C)C(N)=O [VII, HCl]	label 1
CSCC[C@H](NC(=O)[C@H](CC(C)C)NC(=O)[C@H](Cc1c[nH]cn1)NC(=O)CNC(=O)[C@@H](NC(=O)[C@H](C)NC(=O)[C@H](Cc1c[nH]c2ccccc12)NC(=O)[C@H](CCC(N)=O)NC(=O)[C@H](Cc1ccc(N(CCCl)CCCl)cc1)NC(=O)OC(C)(C)C)C(C)C)C(N)=O [VI]	label 1

Turning now to a further record.
In: Form field: pIC50 at least 7? Entry: CSCC[C@H](NC(=O)[C@H](CC(C)C)NC(=O)[C@H](Cc1c[nH]cn1)NC(=O)CNC(=O)[C@@H](NC(=O)[C@H](C)NC(=O)[C@H](Cc1c[nH]c2ccccc12)NC(=O)[C@H](CCC(N)=O)NC(=O)[C@H](Cc1cccc(N(CCCl)CCCl)c1)NC(=O)OC(C)(C)C)C(C)C)C(N)=O [XVIII]
Out: label 1
